Tested on: Influenza A virus
protocol-summary: Antiviral activity against amantadine-resistant Influenza A virus A/WSN/33(H1N1) expressing M2 S31N mutant ion channel infected in MDCK cells assessed as protection against virus induced cytopathic effect after 48 hrs by microscopic analysis
Format: functional, organism-based, A/WSN/1933(H1N1)

structure-as-smiles: C[C@@H]1[C@H]2C[C@@H](C[C@H]1NCc1cnc(-c3cccs3)[nH]1)C2(C)C
IC50: Not Active

structure-as-smiles: C[C@@H]1[C@H]2C[C@@H](C[C@H]1NCc1cncn1C)C2(C)C
IC50: Not Active

structure-as-smiles: CCc1nc(C)c(CN[C@@H]2C[C@@H]3C[C@H]([C@H]2C)C3(C)C)[nH]1
IC50: Not Active

structure-as-smiles: CCc1nc[nH]c1CN[C@@H]1C[C@@H]2C[C@H]([C@H]1C)C2(C)C
IC50: Not Active

structure-as-smiles: CC(C)c1ncc(CN[C@@H]2C[C@@H]3C[C@H]([C@H]2C)C3(C)C)[nH]1
IC50: Not Active

structure-as-smiles: C[C@@H]1[C@H]2C[C@@H](C[C@H]1NCc1[nH]cnc1-c1ccccc1)C2(C)C
IC50: Not Active

structure-as-smiles: C[C@@H]1[C@H]2C[C@@H](C[C@H]1NCc1cnc(C3CCCC3)[nH]1)C2(C)C
IC50: Not Active

structure-as-smiles: C[C@@H]1[C@H]2C[C@@H](C[C@H]1NCc1cnc(C3CCCCC3)[nH]1)C2(C)C
IC50: Not Active
